The following molecules are shown together with reported IC50 values.
- measured_target: Cytochrome P450 3A4 (Homo sapiens)
- Sequence (P08684 whole entry): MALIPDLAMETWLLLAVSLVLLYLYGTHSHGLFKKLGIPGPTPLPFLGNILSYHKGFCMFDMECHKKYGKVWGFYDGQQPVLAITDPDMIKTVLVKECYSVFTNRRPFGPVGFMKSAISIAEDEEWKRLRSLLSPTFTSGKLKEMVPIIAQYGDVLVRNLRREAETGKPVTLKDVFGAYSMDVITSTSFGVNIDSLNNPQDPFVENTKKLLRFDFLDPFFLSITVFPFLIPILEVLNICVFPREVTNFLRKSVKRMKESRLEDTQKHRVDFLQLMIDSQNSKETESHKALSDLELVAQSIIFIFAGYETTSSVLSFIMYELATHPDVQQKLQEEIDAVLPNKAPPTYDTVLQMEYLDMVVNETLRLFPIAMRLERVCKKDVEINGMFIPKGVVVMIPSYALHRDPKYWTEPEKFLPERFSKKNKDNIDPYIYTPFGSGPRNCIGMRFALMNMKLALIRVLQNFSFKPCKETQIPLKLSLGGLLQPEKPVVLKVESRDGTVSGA
- method: Inhibition of dog Cytochrome P450 3A by macrocycles
Record the result as number plus unit.

N#Cc1ccc2cc1Oc1ccc3c(c1)[C@H](CC3)N1CC[C@@H](NCc3cncn3C2)C1=O	14.8 µM

Prompt: Bench note: what IC50 did CC1c2ccc(C#N)c(c2)Oc2cccc(c2)CN2CCC(NCc3cncn31)C2=O (single isomer, unassigned; diastereomer B) show?
Completion: 6.1 µM

Prompt: Endpoint output: IC50 of N#Cc1ccc2cc1Oc1ccc3c(c1)[C@@H](CC3)N1CC[C@@H](NCc3cncn3C2)C1=O . Value?
Completion: 10.4 µM

Prompt: Need IC50, item N#Cc1ccc2cc1Oc1ccc3cccc(c3c1)N1CCC(NCCc3cncn3C2)C1=O (stereo in doubt; 66)
Completion: 0.6 µM

---

This section presents compounds with their documented pIC50 values.
- measured_target: Protein farnesyltransferase (Homo sapiens, UniProt P49354+P49356)
- method: Inhibition of human farnesyltransferase in an enzyme assay.
FYI, pIC50 means -log10 of a concentration in mol per litre.

Consider the worked cases shown below.
CC1c2ccc(C#N)c(c2)Oc2cccc(c2)CN2CCC(NCc3cncn31)C2=O (single isomer, unassigned; diastereomer B)	8.72
N#Cc1ccc2cc1Oc1cc(Cl)cc(c1)CN1CCC(NCc3cncn3C2)C1=O (stereo not given)	7.64

Prompt: I'd like to know its pIC50. The compound in question is N#Cc1ccc2cc1Oc1cccc(c1)C(c1cccc(Cl)c1)N1CCC(NCc3cncn3C2)C1=O (single isomer, unassigned; diastereomer B)
Completion: 8.60

Prompt: Dear colleague, I am looking for the recorded pIC50 of the following compound: N#Cc1ccc2cc1Oc1ccc(Br)c(c1)CN1CCC(NCc3cncn3C2)C1=O (stereo not given)
Completion: 8.85

Prompt: Entry N#Cc1ccc2cc1Oc1ccc3c(c1)[C@@H](CCC3)N1CC[C@H](NCc3cncn3C2)C1=O has what pIC50?
Completion: 8.82

Prompt: For CN1Cc2cncn2Cc2ccc(C#N)c(c2)Oc2ccc3c(c2)C(CC3)N2CCC1C2=O (stereo not given) , what is its reported pIC50?
Completion: 8.85

Prompt: Request the reported pIC50 associated with N#Cc1ccc2cc1Oc1cccc(c1)C(c1ccccc1)N1CCC(NCc3cncn3C2)C1=O (stereo in doubt; 26A)
Completion: 7.24

Prompt: What measured pIC50 goes with N#Cc1ccc2cc1Oc1cccc(c1)-c1ccccc1N1CCC(NCc3cncn3C2)C1=O (stereo not given) ?
Completion: 8.89

Prompt: Any idea what its pIC50 is? The compound is CN1Cc2cncn2Cc2ccc(C#N)c(c2)Oc2ccc3cccc(c3c2)N2CCC1C2=O (stereo not given)
Completion: 8.31

Prompt: Suppose we examine the compound N#Cc1ccc2cc1Oc1cccc(c1)C(c1ccccc1)N1CCC(NCc3cncn3C2)C1=O (single isomer, unassigned; diastereomer B) ; what pIC50 value has been reported?
Completion: 8.00

Prompt: So what's the measured pIC50 for this one? CC1c2ccc(C#N)c(c2)Oc2cccc(c2)CN2CCC(NCc3cncn31)C2=O (single isomer, unassigned; diastereomer A)
Completion: 6.77

Prompt: Requested read-out: pIC50. Entry: N#Cc1ccc2cc1Oc1cccc(c1)CN1CC[C@H](NCc3cncn3C2)C1=O
Completion: 7.27

Prompt: Fill blank: measured pIC50 of the compound N#Cc1ccc2cc1Oc1ccc3cccc(c3c1)N1CC[C@@H](NCc3cncn3C2)C1=O is ____.
Completion: 8.80

Prompt: If you can, please state the reported pIC50 value of N#Cc1ccc2cc1Oc1cccc(c1)C(c1cccc(Cl)c1)N1CCC(NCc3cncn3C2)C1=O (single isomer, unassigned; diastereomer A) .
Completion: 7.60

---

- measured_target: Protein farnesyltransferase (Rattus norvegicus, UniProt Q02293+Q04631)
- method: Inhibition of Farnesyltransferase in cells, evaluated in a radiotracer assay for farnesyltransferase inhibition (CRAFTI), in cultured H-ras-transformed Rat cells
reported_property: IC50 (nM)
Supply the numeric figure in nM, leaving out any unit text.

Below are worked cases with known answers.
N#Cc1ccc2cc1Oc1ccc3cccc(c3c1)N1CC[C@@H](NCc3cncn3C2)C1=O	4.4
CN1CCc2cncn2Cc2ccc(C#N)c(c2)Oc2ccc3cccc(c3c2)N2CC[C@@H]1C2=O	0.57
N#Cc1ccc2cc1Oc1ccc3c(c1)[C@H](CC3)N1CC[C@@H](NCc3cncn3C2)C1=O	41
N#Cc1ccc2cc1Oc1ccc3c(c1)[C@H](CC3)N1CC[C@H](NCc3cncn3C2)C1=O	93
N#Cc1ccc2cc1Oc1ccc3cccc(c3c1)N1CC[C@H](NCc3cncn3C2)C1=O	3.8

Prompt: Give the measured IC50 of N#Cc1ccc2cc1Oc1cccc(c1)C(c1cccc(Cl)c1)N1CCC(NCc3cncn3C2)C1=O (single isomer, unassigned; diastereomer B) .
Completion: 200

Prompt: Look up IC50: CN1CCc2cncn2Cc2ccc(C#N)c(c2)Oc2ccc3cccc(c3c2)N2CC[C@H]1C2=O
Completion: 0.21

Prompt: Report IC50 for CC1c2ccc(C#N)c(c2)Oc2cccc(c2)CN2CCC(NCc3cncn31)C2=O (single isomer, unassigned; diastereomer A) please.
Completion: 74

---

- method: suboptimal plasma half-life caused a10% prolongation of QTc interval in dogs at a plasma level of […]
- Format: ADME, organism-based, Canis lupus familiaris
- stated_conditions: dog
reported_property: half-life (h)
All answers are understood in h, so give the number only.

Prompt: What value of half-life has been recorded for this entry: N#Cc1ccc(Cn2cncc2CN[C@H]2CCN(Cc3cccc(Cl)c3)C2=O)cc1
Completion: 1.1

---

- method: Pharmacokinetic data at 0.5 mg/kg dose given to dogs intravenously.
- Type: ADME, organism-based, Canis lupus familiaris
- Set-up: dose 0.5 mg/kg, route intravenous
- stated_conditions: dog, plasma, iv, read-out: Clp
Criterion: clearance meeting or surpassing 2 mL/min/kg. Met: YES. Not met: NO.

Previously resolved entries follow.
N#Cc1ccc2cc1Oc1ccc3c(c1)[C@H](CC3)N1CC[C@@H](NCc3cncn3C2)C1=O	NO
CN1Cc2cncn2Cc2ccc(C#N)c(c2)Oc2ccc3cccc(c3c2)N2CCC1C2=O (centres undefined)	NO
CC1c2ccc(C#N)c(c2)Oc2cccc(c2)CN2CCC(NCc3cncn31)C2=O (single isomer, unassigned; diastereomer B)	YES
N#Cc1ccc2cc1Oc1ccc(Br)c(c1)CN1CCC(NCc3cncn3C2)C1=O (centres undefined)	YES
N#Cc1ccc2cc1Oc1ccc3c(c1)[C@@H](CC3)N1CC[C@@H](NCc3cncn3C2)C1=O	YES

Prompt: Is it the case that N#Cc1ccc2cc1Oc1cccc(c1)-c1ccccc1N1CCC(NCc3cncn3C2)C1=O (centres undefined) has clearance reaching or exceeding 2 mL/min/kg?
Completion: YES

Prompt: Kindly determine if clearance recorded for CN1CCc2cncn2Cc2ccc(C#N)c(c2)Oc2ccc3cccc(c3c2)N2CC[C@H]1C2=O is above or exactly 2 mL/min/kg.
Completion: NO

Prompt: Answer whether clearance of N#Cc1ccc2cc1Oc1ccc3c(c1)[C@@H](CCC3)N1CC[C@@H](NCc3cncn3C2)C1=O is greater than or equal to 2 mL/min/kg.
Completion: YES

Prompt: State whether the measured clearance reaches 2 mL/min/kg, counting equality as reaching it, for N#Cc1ccc2cc1Oc1ccc3cccc(c3c1)N1CC[C@H](NC(=O)Cc3cncn3C2)C1=O
Completion: NO

---

- method: Pharmacokinetic data at 1 mg/kg dose given to dogs intravenously
- Format: ADME, organism-based, Canis lupus familiaris
- Set-up: dose 1 mg/kg, route intravenous
- stated_conditions: dog, in vivo, iv, read-out: Vdss
reported_property: Vd (L/kg)
I only need the number, in L/kg, no unit after it.

Prompt: Recorded Vd of N#Cc1ccc(Cn2cncc2CN[C@H]2CCN(Cc3cccc(Cl)c3)C2=O)cc1 , please.
Completion: 0.45

---

- measured_target: Protein farnesyltransferase (Homo sapiens, UniProt P49354+P49356)
- method: Inhibition of Farnesyltransferase at 10 pM enzyme concentration
reported_property: IC50 (nM)
Output spec: scalar in nM, unitless text.

N#Cc1ccc2cc1Oc1ccc3cccc(c3c1)N1CCC(NCCc3cncn3C2)C1=O (stereo in doubt; 66)	0.19

Switching to the query record.
Prompt: Query (compound): N#Cc1ccc2cc1Oc1cccc(c1)CN1CC[C@@H](NCc3cncn3C2)C1=O ; field requested: IC50
Completion: 2

---

- measured_target: Protein farnesyltransferase (Homo sapiens, UniProt P49354+P49356)
- method: Inhibition of HDJ2 farnesylation in PSN-1 cells over 7 hr assay
- Format: functional, cell-based
pEC50: −log10 of the molar value.
Criterion: pEC50 meeting or surpassing 9. Met: fulfilled. Not met: not fulfilled.

Study these solved cases before continuing.
N#Cc1ccc2cc1Oc1cccc(c1)CN1CC[C@@H](NCc3cncn3C2)C1=O	not fulfilled
N#Cc1ccc2cc1Oc1ccc3cccc(c3c1)N1CC[C@H](NCc3cncn3C2)C1=O	not fulfilled
N#Cc1ccc2cc1Oc1ccc3c(c1)[C@@H](CCC3)N1CC[C@H](NCc3cncn3C2)C1=O	not fulfilled
N#Cc1ccc2cc1Oc1ccc3c(c1)[C@@H](CCC3)N1CC[C@@H](NCc3cncn3C2)C1=O	fulfilled

Kindly review the next molecule as well.
Prompt: Is it the case that N#Cc1ccc2cc1Oc1ccc3cccc(c3c1)N1CCC(NCCc3cncn3C2)C1=O (stereo in doubt; 66) has pEC50 reaching or exceeding 9?
Completion: not fulfilled
